# tested.on: T1, cynomolgus (cyno) TMEM106B (cynomolgus, UniProt Q9NUM4 2-274 (human entry))
# T1 construct: on transiently transfected HEK293 cells
# assay.name: FACS, HEK293 transfectants;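 also: flow cytometry binding of hybridoma supernatants to HEK293 cells transiently expressing human, cyno or mouse TMEM106B, read as anti-mouse-APC median fluorescence, live cells only, 30 min on ice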
Would you mind labelling by fold-change over parental HEK293? At or over 60 fold is Y, under is N.

-- ask In plain terms: is recorded fold-change over parental HEK293 at least 60 fold for anti-TMEM106B antibody TM-31 (antibody, V domains shown, mouse IgG from hybridoma) VH: QVQLQQSGAELAKPGASVKVSCKASGYTFISYWMNWVKQRPGQGLEWIGYINPTSGYTRYNQKFKDKATLTADKSSSTAYMQLSSLTYEDSAVYYCARSPPTVVLIGYFDYWGQGTTLTVSS VL: DIKMTQSPSSMYASLGERVTFTCKASQDINSYLSWFQQKPGKSPKTLIYRGNGLVDGVPSRFSGSGSGQDYSLTISSLEYEDMGIYYCLQYDEFPFTFASGTKLEIK ?
-- reply Y

-- ask In plain terms: is recorded fold-change over parental HEK293 at least 60 fold for anti-TMEM106B antibody TM-25 (antibody, V domains shown) VH: EVQLVESGGDLVKPGGSLRLSCAASGFTFSGYGMSWIRQTPDKRLEWVATISSGGRYTVYPDSVKGRFTMSRDNVKNTLYLQMSSLKSEDTALYYCARDNFYSYAMDYWGLGTSVTVSA VL: DIVMTQAAFSNPVTLGTSASISCRSSKSLLHSNGITYLFWYLQKPGQSPQLLIYQMSNLASGVPDRFSSSGSGTDFTLRISRVEAEDVGVYYCAQNLELWTFGGGTKLEIK ?
-- reply N

-- ask In plain terms: is recorded fold-change over parental HEK293 at least 60 fold for anti-TMEM106B antibody TM-2 (antibody, V domains shown) VH: HIQLVQSGPELKKPGETVKISCKASGYTFTEYPMHWVKQAPGKGFRWMGMIYTNTGEPTYAAEFKGRFAFSLETSASTGYLQINNLKNEDSATYFCVTAGYWGQGTLVTVSA VL: QIVLTQSPAILSASPGEKVTMTCRASSSVSYIHWFLQKPGSSPKPWIYATSNLASGVPFRFIGSGSGTSYSLTISGVEAEDSATYYCQQWSSNPSTFGAGTKLELK ?
-- reply N

-- ask In plain terms: is recorded fold-change over parental HEK293 at least 60 fold for anti-TMEM106B antibody TM-21 (antibody, V domains shown) VH: EVQLVESGGGLVKPGGSLKLSCAASGFTFSNYAMSWVRETPEKRLEWVAFISDGGGYIYYADNVKDRFTISRDNAKNNLYLQMRHLKSEDTAMYYCARDGGTGFTYWGQGTLVTVSV VL: DIVMTQAAFSNPVTLGTSASISCRSSKSLLHSNGITYLFWYLQKPGQSPQLLIYQMSNLASGVPDRFSSSGSGTDFTLRISRVEAEDVGVYYCVQNLELPYTFGGGTKLEIK ?
-- reply N

-- ask In plain terms: is recorded fold-change over parental HEK293 at least 60 fold for anti-TMEM106B antibody TM-10 (antibody, V domains shown) VH: QVQLQQSGAELVKPGASVKISCKGSGYAFSSYWMNWVKQRPGKGLEWIGQIYPGDGDTNYNGKFKGKATLTADKSSTTAYIHLSSLTSEDSAVYFCARWGHYDEAMDDWGQGTSVTVSS VL: DVVMTQTPLSLPVSLGDQASISCRSSQSLVHSNGKTYLHWYVQKPGQSPKLLIYKISNRFSGVPDRFSGSGSGTDFTLKISRVEAEDLGVYFCSQITHVPWTFGGGTKLESK ?
-- reply Y
